The measurements presented in this section are drawn from ChEMBL document CHEMBL1146617.

- TEST_DETAILS: in vitro
- EXPERIMENTAL_PARAMETERS: human, microsomes
MEASURE: half-life (min)
Express your answer in min, writing the number without its unit.

Sample answers from the record:
{"RECORD_SMILES": "CCCN(CCC)c1c(C)nc(-c2c(C)cc(C)cc2C)nc1O", "RECORDED_VALUE": 7.5}
{"RECORD_SMILES": "CCCN(CCC)c1c(CC)nc(-c2c(C)cc(C)cc2OC)[nH]c1=O", "RECORDED_VALUE": 8.1}
{"RECORD_SMILES": "CCCN(CCC)c1c(C)nc(-c2c(C)cc(C)cc2OC)nc1O", "RECORDED_VALUE": 15.5}

Moving on to another compound below.
Item `CCCN(CCC)c1c(C)nc(-c2ccc(OC)cc2OC)nc1O` has what recorded half-life?
9.4
